Would you kindly list Plant response rating, Blackgrass for each of these compounds?
Tested on: blackgrass (Alopecurus myosuroides)
ASSAY_NAME: Test A postemergence, blackgrass
Type: in vivo
PARTICULARS: 500 g ai/ha, 0 to 100 scale, 0 no effect, 100 complete control
Respond with the number and no other words.

Problem: Quick one: Plant response rating, Blackgrass for C[C@@H](Nc1nc(N)c(C(F)(F)F)c(C(F)(F)F)n1)C1Cc2ccccc2C1 ?
Solution: 0

Problem: Quick one: Plant response rating, Blackgrass for Nc1nc(N[C@@H](c2coc3ccccc23)C2CC2)ncc1C(F)(F)F ?
Solution: 90

Problem: Quick one: Plant response rating, Blackgrass for C[C@@H](Nc1ncc(C#N)c(N)n1)c1cc2ccccc2s1 ?
Solution: 20

Problem: Quick one: Plant response rating, Blackgrass for C[C@H](Nc1ncc(C(F)(F)F)c(N)n1)c1cc2cccc(F)c2o1 ?
Solution: 0

Problem: Quick one: Plant response rating, Blackgrass for CC(Nc1ncc(C(F)(F)F)c(N)n1)c1cc2c(Br)cccc2o1 (centres unmarked) ?
Solution: 40

Problem: Quick one: Plant response rating, Blackgrass for CC(Nc1ncc(C(F)(F)F)c(N)n1)c1cc2ccc(F)c(F)c2s1 (centres unmarked) ?
Solution: 10

Problem: Quick one: Plant response rating, Blackgrass for CC(Nc1nc(N)c(C(F)(F)F)c(C(F)(F)F)n1)c1coc2ccccc12 (centres unmarked) ?
Solution: 0

Problem: Quick one: Plant response rating, Blackgrass for CC(Nc1ncc(C(F)(F)F)c(N)n1)c1coc2cc(Cl)ccc12 (racemic) ?
Solution: 0

Problem: Quick one: Plant response rating, Blackgrass for Cc1nc(NC(C)c2coc3ccccc23)nc(N)c1C(F)(F)F (centres unmarked) ?
Solution: 0

Problem: Quick one: Plant response rating, Blackgrass for C[C@H](Nc1nc(N)c(C(F)(F)F)c(C(F)(F)F)n1)c1cc2ccccc2o1 ?
Solution: 30

Problem: Quick one: Plant response rating, Blackgrass for CC(Nc1ncc(C(F)(F)F)c(N)n1)c1cc2ccc(Cl)cc2s1 (racemic) ?
Solution: 30

Problem: Quick one: Plant response rating, Blackgrass for CC(Nc1ncc([N+](=O)[O-])c(N)n1)c1cc2ccccc2s1 (centres unmarked) ?
Solution: 0

Problem: Quick one: Plant response rating, Blackgrass for CC(Nc1nc(N)c(C(F)(F)F)c(C(F)(F)F)n1)c1cc2ccccc2o1 (racemic) ?
Solution: 0

Problem: Quick one: Plant response rating, Blackgrass for Cc1nc(NC(C)c2cc3ccccc3s2)nc(N)c1C(F)(F)F (centres unmarked) ?
Solution: 0

Problem: Quick one: Plant response rating, Blackgrass for Cc1ccc2c(C(C)Nc3ncc(C(F)(F)F)c(N)n3)coc2c1 (centres unmarked) ?
Solution: 50

Problem: Quick one: Plant response rating, Blackgrass for CC[C@H](Nc1ncc(C(F)(F)F)c(N)n1)c1coc2ccccc12 ?
Solution: 0

Problem: Quick one: Plant response rating, Blackgrass for CC(Nc1ncc(C(F)(F)F)c(N)n1)c1coc2cccc(F)c12 (racemic) ?
Solution: 30
